These measurements were taken from ChEMBL document CHEMBL4428056.

Target: Galectin-3 (Homo sapiens, UniProt P17931, R186S)
Sequence (P17931 2-250 R186S limits assumed): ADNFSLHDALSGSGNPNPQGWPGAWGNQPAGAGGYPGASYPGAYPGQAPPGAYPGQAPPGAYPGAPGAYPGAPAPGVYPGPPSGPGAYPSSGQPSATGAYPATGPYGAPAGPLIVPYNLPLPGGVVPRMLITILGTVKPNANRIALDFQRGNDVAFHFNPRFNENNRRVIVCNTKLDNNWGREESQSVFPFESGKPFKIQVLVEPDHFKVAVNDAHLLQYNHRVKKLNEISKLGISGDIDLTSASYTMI
Experiment: Competitive binding affinity to recombinant human galectin-3 R186S mutant after 5 mins in presence of fluorescent probe 2-(fluorescein-5/6-yl-carbonyl)-aminoethyl 2-acetamido-2-deoxy-alpha-D-galactopyranosyl-(1-3)-[alpha-L-fucopyranosyl-(1-2)]-beta-D-galactopyranosyl-(1-4)-beta-D-glucopyranoside by fluorescence polarization assay
ASSAY_ENDPOINT: pKd
Remember, pKd is on a log scale: it is -log10 of the molar concentration.

Short answer please: pKd, Galectin-3 (Homo sapiens, UniProt P17931, R186S), entry O=c1oc2ccccc2cc1CO[C@H]1[C@@H](O)[C@@H](CO)O[C@@H](S[C@@H]2O[C@H](CO)[C@H](O)[C@H](OCc3cc4ccccc4oc3=O)[C@H]2O)[C@@H]1O 4.30
